Origin of measurements: paper PMC10397247

# system: T1, P6-AA-1HGe-S
# T1 chain: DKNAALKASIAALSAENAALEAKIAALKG
# assay overview: two-hybrid library CCmax;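 also: natural log of median RNA to DNA barcode read ratio; higher means stronger binding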
# assay context: mean of both orientations
interaction score reference

>  <binder>
DENAALEARIAALRAKNAALKAEIAALEG [P5-AA-1HGe-R]

>  <interaction score>
1.48

$$$$
>  <binder>
DENAALEAEIAALEAKNAALKAEIAALEG [O5-AA]

>  <interaction score>
2.12

$$$$
>  <binder>
DENAALEAAIAALAAKNAALKAEIAALEG [P5-AA-1HGe-A]

>  <interaction score>
1.63

$$$$
>  <binder>
DENAALEASIAALSAKNAALKAEIAALEG [P5-AA-1HGe-S]

>  <interaction score>
1.13

$$$$
>  <binder>
DENAALEATIAALTAKNAALKAEIAALEG [P5-AA-1HGe-T]

>  <interaction score>
1.91

$$$$
